The reported numbers originate from PubChem BioAssay AID248.

System: L1210 leukemia ip in BDF1 mice, survival T/C
Assay: NCI In Vivo Anticancer Drug Screen. Data for tumor model L1210 Leukemia (intraperitoneal) in B6D2F1 (BDF1) mice
Conditions: endpoint: mean survival time; dose: 200.0 mg/kg/injection; schedule: Q04DX002 (ip); vehicle: gum acacia; higher = longer survival
Toxic doses and inconclusive results are not listed.
Reported Property: T/C

Entry S=P(NCc1ccccc1)(NCc1ccccc1)NCc1ccccc1 , L1210 leukemia ip in BDF1 mice, survival T/C data, T/C value: 97 % of control

Entry O=C(COc1ccc(Cl)cc1)Nc1ccc(Br)cc1 , L1210 leukemia ip in BDF1 mice, survival T/C data, T/C value: 106 % of control

Entry NC(=O)C(NC(=O)c1ccc([N+](=O)[O-])cc1)SCc1ccccc1 (stereo not given) , L1210 leukemia ip in BDF1 mice, survival T/C data, T/C value: 90 % of control

Entry COc1cc(C=C(C#N)C#N)ccc1OC(=O)c1cc(OC)c(OC)c(OC)c1 , L1210 leukemia ip in BDF1 mice, survival T/C data, T/C value: 92 % of control

Entry CC(C)C(=O)/C=C/c1ccc(Cl)cc1 , L1210 leukemia ip in BDF1 mice, survival T/C data, T/C value: 92 % of control
